Molecular target: LRRK2 WT (Homo sapiens, UniProt Q5S007)
Construct: purchased Life Technologies PR8604B
Sequence (Q5S007 whole entry): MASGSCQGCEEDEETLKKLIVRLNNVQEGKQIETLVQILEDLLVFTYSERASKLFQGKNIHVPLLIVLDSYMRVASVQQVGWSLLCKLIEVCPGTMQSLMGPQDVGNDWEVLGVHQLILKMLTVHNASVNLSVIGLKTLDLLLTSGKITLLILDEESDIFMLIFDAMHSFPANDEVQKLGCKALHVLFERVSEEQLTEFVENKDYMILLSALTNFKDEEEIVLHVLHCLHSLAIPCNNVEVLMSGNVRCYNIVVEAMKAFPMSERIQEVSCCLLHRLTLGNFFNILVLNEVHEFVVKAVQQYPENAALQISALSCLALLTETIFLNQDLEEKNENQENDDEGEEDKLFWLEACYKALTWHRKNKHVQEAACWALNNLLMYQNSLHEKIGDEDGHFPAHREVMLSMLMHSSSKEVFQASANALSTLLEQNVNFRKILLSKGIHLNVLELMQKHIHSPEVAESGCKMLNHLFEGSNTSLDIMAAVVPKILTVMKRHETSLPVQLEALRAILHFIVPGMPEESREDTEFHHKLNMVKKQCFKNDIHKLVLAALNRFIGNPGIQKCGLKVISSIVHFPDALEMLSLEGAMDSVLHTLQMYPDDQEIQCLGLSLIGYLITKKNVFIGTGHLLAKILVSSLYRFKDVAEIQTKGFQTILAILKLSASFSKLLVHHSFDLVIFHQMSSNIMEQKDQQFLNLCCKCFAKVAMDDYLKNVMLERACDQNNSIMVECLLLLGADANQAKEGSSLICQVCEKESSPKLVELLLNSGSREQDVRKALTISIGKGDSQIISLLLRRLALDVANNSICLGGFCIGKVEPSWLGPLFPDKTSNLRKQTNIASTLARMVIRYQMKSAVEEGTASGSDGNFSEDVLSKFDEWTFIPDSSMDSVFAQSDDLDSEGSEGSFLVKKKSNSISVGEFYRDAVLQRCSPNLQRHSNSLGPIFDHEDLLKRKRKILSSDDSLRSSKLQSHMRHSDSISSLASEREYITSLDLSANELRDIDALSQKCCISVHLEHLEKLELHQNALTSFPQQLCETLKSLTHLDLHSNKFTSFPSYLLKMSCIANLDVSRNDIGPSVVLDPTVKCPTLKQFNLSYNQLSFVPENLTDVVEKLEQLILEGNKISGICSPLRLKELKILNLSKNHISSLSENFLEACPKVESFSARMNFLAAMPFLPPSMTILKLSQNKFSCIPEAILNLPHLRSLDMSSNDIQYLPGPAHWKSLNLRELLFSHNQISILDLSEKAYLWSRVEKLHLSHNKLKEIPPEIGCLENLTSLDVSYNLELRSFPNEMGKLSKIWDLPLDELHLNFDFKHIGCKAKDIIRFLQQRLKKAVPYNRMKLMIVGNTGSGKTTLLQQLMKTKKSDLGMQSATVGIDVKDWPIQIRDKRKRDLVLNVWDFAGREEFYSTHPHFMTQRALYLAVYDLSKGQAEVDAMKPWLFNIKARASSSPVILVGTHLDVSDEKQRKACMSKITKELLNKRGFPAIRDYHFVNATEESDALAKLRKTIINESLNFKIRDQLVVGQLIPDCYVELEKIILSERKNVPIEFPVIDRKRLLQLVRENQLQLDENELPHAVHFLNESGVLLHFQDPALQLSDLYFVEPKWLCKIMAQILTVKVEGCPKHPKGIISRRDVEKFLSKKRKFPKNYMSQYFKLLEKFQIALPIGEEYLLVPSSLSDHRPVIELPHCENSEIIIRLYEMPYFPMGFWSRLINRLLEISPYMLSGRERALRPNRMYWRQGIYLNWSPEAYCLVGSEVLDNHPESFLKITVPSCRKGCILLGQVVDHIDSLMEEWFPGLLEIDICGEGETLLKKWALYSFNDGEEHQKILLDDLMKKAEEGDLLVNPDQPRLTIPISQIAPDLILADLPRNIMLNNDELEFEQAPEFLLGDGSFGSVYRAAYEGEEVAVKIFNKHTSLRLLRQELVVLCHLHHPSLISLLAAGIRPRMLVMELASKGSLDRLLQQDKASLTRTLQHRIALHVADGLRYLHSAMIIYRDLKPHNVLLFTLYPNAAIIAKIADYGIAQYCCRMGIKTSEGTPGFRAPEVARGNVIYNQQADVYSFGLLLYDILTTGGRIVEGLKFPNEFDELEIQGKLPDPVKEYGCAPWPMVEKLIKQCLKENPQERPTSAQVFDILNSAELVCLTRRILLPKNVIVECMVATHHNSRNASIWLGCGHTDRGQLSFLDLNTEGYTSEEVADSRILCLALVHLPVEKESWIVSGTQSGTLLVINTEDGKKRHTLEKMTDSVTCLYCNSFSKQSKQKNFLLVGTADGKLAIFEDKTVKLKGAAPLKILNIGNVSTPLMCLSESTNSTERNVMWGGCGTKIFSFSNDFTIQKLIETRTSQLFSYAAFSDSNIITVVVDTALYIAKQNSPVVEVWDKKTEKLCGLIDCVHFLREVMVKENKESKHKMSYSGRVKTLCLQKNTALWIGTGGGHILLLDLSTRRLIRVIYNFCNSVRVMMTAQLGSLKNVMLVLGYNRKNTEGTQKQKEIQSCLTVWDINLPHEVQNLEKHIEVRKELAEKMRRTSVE
Assay: LRRK2 Kinase Activity Assay (LanthaScreen TR-FRET), wild type
Format: biochemical
Conditions: recombinant wild type LRRK2, 25 μM ATP, 400 nM LRRKtide, 60 min; class symbols
Kindly supply the reported IC50 values for the records listed here.

Input: Name the recorded IC50 for N#Cc1ccc2c(c1F)CC[C@@H]2Oc1ccc2[nH]nc(-c3cnn(C(F)F)c3)c2c1 (single isomer, unassigned) [Example 51, enantiomer 2] .
Output: < 100 nM

Input: Name the recorded IC50 for Cc1cc2c(cc1C#N)CCC[C@@H]2Nc1ccc2[nH]nc(-c3cnco3)c2c1 (single isomer, unassigned) [Example 110, enantiomer 1] .
Output: < 100 nM

Input: Name the recorded IC50 for N#Cc1ccc2c(c1)CC[C@@H]2Oc1ccc2[nH]nc(-c3cnoc3)c2c1 (single isomer, unassigned) [Example 5, enantiomer 2] .
Output: < 100 nM

Input: Name the recorded IC50 for N#Cc1ccc2c(c1)CC(F)(F)[C@@H]2Nc1ccc2[nH]nc(-c3cnco3)c2c1 (single isomer, unassigned) [Example 42, enantiomer 1] .
Output: < 100 nM

Input: Name the recorded IC50 for N#Cc1ccc2c(c1)CCC[C@@H]2Nc1ccc2[nH]nc(-c3ccc(C(=O)O)cc3)c2c1 (single isomer, unassigned) [Example 55] .
Output: < 100 nM

Input: Name the recorded IC50 for N#Cc1ccc2c(c1Cl)CCC[C@@H]2Nc1ccc2[nH]nc(-c3cnco3)c2c1 (single isomer, unassigned) [Example 143, enantiomer 1] .
Output: 100 to 1000 nM

Input: Name the recorded IC50 for N#Cc1cnc2c(c1)CCC[C@@H]2Nc1ccc2[nH]nc(Cl)c2c1 (single isomer, unassigned) [Example 126, enantiomer 2] .
Output: 100 to 1000 nM

Input: Name the recorded IC50 for Cc1cc2c(cc1C#N)CCC[C@@H]2Nc1ccc2[nH]nc(-c3cnco3)c2c1 (single isomer, unassigned) [Example 110, enantiomer 2] .
Output: 100 to 1000 nM

Input: Name the recorded IC50 for N#Cc1ccc2c(c1)CCC[C@@H]2Nc1ccc2[nH]nc(-c3ccc(C#N)nc3)c2c1 (single isomer, unassigned) [Example 91] .
Output: 100 to 1000 nM

Input: Name the recorded IC50 for N#Cc1cc2c(nc1Cl)[C@@H](Oc1ccc3[nH]nc(-c4cnco4)c3c1)CC2 (single isomer, unassigned) [Example 171, enantiomer 1] .
Output: < 100 nM

Input: Name the recorded IC50 for Cn1ccc(-c2n[nH]c3ccc(N[C@H]4CCCc5cc(C#N)cnc54)cc23)c1 (single isomer, unassigned) [Example 149, enantiomer 2] .
Output: < 100 nM

Input: Name the recorded IC50 for Cc1c(C#N)ccc2c1CC[C@@H]2Nc1ccc2[nH]nc(-c3cnn(C(F)F)c3)c2c1 (single isomer, unassigned) [Example 52, enantiomer 2] .
Output: < 100 nM

Input: Name the recorded IC50 for N#Cc1ccc2c(c1)CCC[C@@H]2Nc1ccc2[nH]nc(-c3ccc([N+](=O)[O-])cc3)c2c1 (single isomer, unassigned) [Example 70] .
Output: 100 to 1000 nM

Input: Name the recorded IC50 for Cc1c(C#N)ccc2c1CC[C@@H]2Nc1ccc2[nH]nc(-c3cnco3)c2c1 (single isomer, unassigned) [Example 27, enantiomer 1] .
Output: < 100 nM

Input: Name the recorded IC50 for N#Cc1cnc2c(c1)CCC[C@@H]2Oc1ccc2[nH]nc(I)c2c1 (single isomer, unassigned) [Example 137, enantiomer 1] .
Output: < 100 nM

Input: Name the recorded IC50 for N#Cc1ccc2c(c1)CCC[C@@H]2Oc1ccc2[nH]nc(-c3ccnc(N4CCOCC4)c3)c2c1 (single isomer, unassigned) [Example 39, enantiomer 2] .
Output: < 100 nM

Input: Name the recorded IC50 for Cc1n[nH]c2ccc(O[C@H]3CCCc4cc(C#N)ccc43)cc12 (single isomer, unassigned) [Example 19, enantiomer 2] .
Output: 100 to 1000 nM

Input: Name the recorded IC50 for Cn1ccc(-c2n[nH]c3ccc(N[C@H]4CCCc5cc(C#N)ccc54)cc23)cc1=O (single isomer, unassigned) [Example 97] .
Output: 100 to 1000 nM

Input: Name the recorded IC50 for N#Cc1cnc2c(c1)CC[C@@H]2Nc1ccc2[nH]nc(-c3cnco3)c2c1 (single isomer, unassigned) [Example 109, enantiomer 2] .
Output: 100 to 1000 nM

Input: Name the recorded IC50 for N#Cc1cnc2c(c1)CCC[C@@H]2Nc1ccc2[nH]nc(-c3cncs3)c2c1 (single isomer, unassigned) [Example 142, enantiomer 2] .
Output: < 100 nM
